Target: Glutamate receptor ionotropic, NMDA 2A (Rattus norvegicus, UniProt P35439+Q00959)
Sequence (Q00959 whole entry, one chain of several): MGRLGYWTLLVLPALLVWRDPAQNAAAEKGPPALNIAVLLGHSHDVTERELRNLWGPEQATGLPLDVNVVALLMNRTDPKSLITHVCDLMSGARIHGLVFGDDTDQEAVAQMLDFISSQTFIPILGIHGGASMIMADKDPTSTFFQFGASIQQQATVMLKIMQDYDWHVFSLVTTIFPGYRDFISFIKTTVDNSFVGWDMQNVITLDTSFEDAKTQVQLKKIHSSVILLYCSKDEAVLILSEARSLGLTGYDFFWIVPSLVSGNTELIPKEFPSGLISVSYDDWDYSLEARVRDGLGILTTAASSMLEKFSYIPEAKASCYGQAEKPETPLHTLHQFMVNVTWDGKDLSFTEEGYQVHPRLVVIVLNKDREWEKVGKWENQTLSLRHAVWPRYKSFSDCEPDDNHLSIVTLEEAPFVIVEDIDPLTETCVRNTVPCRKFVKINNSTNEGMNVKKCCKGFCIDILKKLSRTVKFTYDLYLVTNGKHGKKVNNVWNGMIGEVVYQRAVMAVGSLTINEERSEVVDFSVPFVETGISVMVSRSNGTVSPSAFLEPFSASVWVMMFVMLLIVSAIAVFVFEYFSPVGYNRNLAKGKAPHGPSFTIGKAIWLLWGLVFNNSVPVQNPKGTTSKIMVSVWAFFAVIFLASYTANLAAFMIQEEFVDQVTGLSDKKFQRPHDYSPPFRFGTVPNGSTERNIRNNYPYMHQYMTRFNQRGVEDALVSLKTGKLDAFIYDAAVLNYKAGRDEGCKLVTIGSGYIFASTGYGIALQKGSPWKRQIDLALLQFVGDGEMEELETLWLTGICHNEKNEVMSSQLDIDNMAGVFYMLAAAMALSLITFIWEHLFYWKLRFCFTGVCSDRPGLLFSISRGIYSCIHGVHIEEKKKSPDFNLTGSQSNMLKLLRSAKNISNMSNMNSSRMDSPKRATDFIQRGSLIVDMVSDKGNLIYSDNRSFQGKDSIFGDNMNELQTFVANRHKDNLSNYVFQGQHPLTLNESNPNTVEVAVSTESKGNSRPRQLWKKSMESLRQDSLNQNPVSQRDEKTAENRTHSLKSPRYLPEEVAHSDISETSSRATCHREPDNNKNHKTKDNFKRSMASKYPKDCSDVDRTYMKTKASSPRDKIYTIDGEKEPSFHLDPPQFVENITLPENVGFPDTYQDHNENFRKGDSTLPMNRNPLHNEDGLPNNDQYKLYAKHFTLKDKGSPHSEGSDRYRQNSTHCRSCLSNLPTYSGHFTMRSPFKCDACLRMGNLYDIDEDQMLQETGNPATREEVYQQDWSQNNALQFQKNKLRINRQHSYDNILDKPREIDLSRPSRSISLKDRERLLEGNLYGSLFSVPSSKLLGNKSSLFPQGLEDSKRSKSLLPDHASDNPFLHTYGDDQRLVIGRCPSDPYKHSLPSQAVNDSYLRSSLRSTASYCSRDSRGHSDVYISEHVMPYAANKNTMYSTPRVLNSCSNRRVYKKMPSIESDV
Test: Negative allosteric modulation of recombinant rat GluN2A receptor expressed in Xenopus laevis oocytes by two-electrode voltage clamp method
measured property: IC50 (µM)

molecule | IC50 / µM
O=C(O)CCCN1N=C(c2c(-c3ccc(Cl)cc3)c3ccccc3[nH]c2=O)CC1c1ccc(Cl)cc1 (stereo not drawn) | 58
O=C(O)/C=C\C(=O)N1N=C(c2c(-c3ccccc3)c3cc(Cl)ccc3[nH]c2=O)CC1c1ccc(Br)cc1 (stereo not drawn) | 74
O=C(O)CCC(=O)N1N=C(c2c(-c3ccccc3)c3cc(Cl)ccc3[nH]c2=O)CC1c1ccc([N+](=O)[O-])cc1 (stereo not drawn) | 91

[1] O=C(O)CCC(=O)N1N=C(c2c(-c3ccccc3)c3cc(Cl)ccc3[nH]c2=O)CC1c1ccc(C(F)(F)F)cc1 (stereo not drawn)
[2] O=C(O)CCC(=O)N1N=C(c2c(-c3cc(F)cc(F)c3)c3ccccc3[nH]c2=O)CC1c1ccc(Cl)cc1 (stereo not drawn)
[3] COc1ccc(C2CC(c3c(-c4ccccc4)c4cc(Cl)ccc4[nH]c3=O)=NN2C(=O)CCC(=O)O)cc1 (stereo not drawn)
[4] NC(=O)CCC(=O)N1N=C(c2c(-c3ccc(Cl)cc3)c3ccccc3[nH]c2=O)CC1c1ccc(Cl)cc1 (stereo not drawn)
[5] O=C(O)CCC(=O)N1N=C(c2c(-c3ccc(Cl)cc3)c3ccccc3[nH]c2=O)CC1c1ccccc1 (stereo not drawn)
### Prompt Sort low-to-high on IC50, please. # format: label list in the order the request specifies
### Response 2, 4, 5, 1, 3
(2: 21 µM, 4: 34 µM, 5: 49 µM, 1: 80 µM, 3: 197 µM)

====

Organism: Rattus norvegicus
Assay: Selectivity ratio of IC50 for recombinant rat GluN2B receptor to IC50 for recombinant rat GluN2D receptor
measured property: Ratio IC50

molecule | val
O=C(O)CCC(=O)N1N=C(c2c(-c3ccc(Cl)cc3)c3ccccc3[nH]c2=O)C[C@@H]1c1ccc(Cl)cc1 | 49
COc1ccc(C2CC(c3c(O)nc4ccc(Cl)cc4c3-c3ccccc3)=NN2C(=O)CCC(=O)O)cc1 (stereo unspecified) | 9
O=C(O)/C=C\C(=O)N1N=C(c2c(-c3ccc(Br)cc3)c3ccccc3[nH]c2=O)CC1c1ccc(Cl)cc1 (stereo unspecified) | 30

[a] O=C(O)CCC(=O)N1N=C(c2c(-c3ccc(Cl)cc3)c3ccccc3[nH]c2=O)C[C@H]1c1ccc(Cl)cc1
[b] O=C(O)CCCN1N=C(c2c(-c3ccc(Cl)cc3)c3ccccc3[nH]c2=O)CC1c1ccc(Cl)cc1 (stereo unspecified)
### Prompt Between the entries labeled a and b , whose measured Ratio IC50 is lower? Identify your selection by its label.
### Response b
(b: 31, a: 156)

[P] O=C(O)CCC(=O)N1N=C(c2c(-c3ccc(Br)cc3)c3ccccc3[nH]c2=O)CC1c1ccc(Br)cc1 (stereo unspecified)
[Q] O=C(O)CCC(=O)N1N=C(c2c(-c3cc(F)cc(F)c3)c3ccccc3[nH]c2=O)CC1c1ccc(Cl)cc1 (stereo unspecified)
[R] O=C(O)CCC(=O)N1N=C(c2c(-c3ccc(Cl)cc3)c3ccccc3[nH]c2=O)CC1c1ccc(F)cc1 (stereo unspecified)
### Prompt Please list these molecules in decreasing order of Ratio IC50. # format: label list in the order the request specifies
### Response Q, P, R
(Q: 123, P: 59, R: 26)

[A] O=C(O)CCC(=O)N1N=C(c2c(-c3ccc(F)c(Cl)c3)c3ccccc3[nH]c2=O)CC1c1ccc(Cl)cc1 (stereo unspecified)
[B] O=C(O)CCCC(=O)N1N=C(c2c(-c3ccc(Br)cc3)c3ccccc3[nH]c2=O)CC1c1ccc(Cl)cc1 (stereo unspecified)
### Prompt # argmax over Ratio IC50 for candidates A and B Identify your selection by its label.
### Response B

====

Target: Glutamate receptor ionotropic, NMDA 2B (Rattus norvegicus, UniProt P35439+Q00960)
Sequence (Q00960 whole entry, one chain of several): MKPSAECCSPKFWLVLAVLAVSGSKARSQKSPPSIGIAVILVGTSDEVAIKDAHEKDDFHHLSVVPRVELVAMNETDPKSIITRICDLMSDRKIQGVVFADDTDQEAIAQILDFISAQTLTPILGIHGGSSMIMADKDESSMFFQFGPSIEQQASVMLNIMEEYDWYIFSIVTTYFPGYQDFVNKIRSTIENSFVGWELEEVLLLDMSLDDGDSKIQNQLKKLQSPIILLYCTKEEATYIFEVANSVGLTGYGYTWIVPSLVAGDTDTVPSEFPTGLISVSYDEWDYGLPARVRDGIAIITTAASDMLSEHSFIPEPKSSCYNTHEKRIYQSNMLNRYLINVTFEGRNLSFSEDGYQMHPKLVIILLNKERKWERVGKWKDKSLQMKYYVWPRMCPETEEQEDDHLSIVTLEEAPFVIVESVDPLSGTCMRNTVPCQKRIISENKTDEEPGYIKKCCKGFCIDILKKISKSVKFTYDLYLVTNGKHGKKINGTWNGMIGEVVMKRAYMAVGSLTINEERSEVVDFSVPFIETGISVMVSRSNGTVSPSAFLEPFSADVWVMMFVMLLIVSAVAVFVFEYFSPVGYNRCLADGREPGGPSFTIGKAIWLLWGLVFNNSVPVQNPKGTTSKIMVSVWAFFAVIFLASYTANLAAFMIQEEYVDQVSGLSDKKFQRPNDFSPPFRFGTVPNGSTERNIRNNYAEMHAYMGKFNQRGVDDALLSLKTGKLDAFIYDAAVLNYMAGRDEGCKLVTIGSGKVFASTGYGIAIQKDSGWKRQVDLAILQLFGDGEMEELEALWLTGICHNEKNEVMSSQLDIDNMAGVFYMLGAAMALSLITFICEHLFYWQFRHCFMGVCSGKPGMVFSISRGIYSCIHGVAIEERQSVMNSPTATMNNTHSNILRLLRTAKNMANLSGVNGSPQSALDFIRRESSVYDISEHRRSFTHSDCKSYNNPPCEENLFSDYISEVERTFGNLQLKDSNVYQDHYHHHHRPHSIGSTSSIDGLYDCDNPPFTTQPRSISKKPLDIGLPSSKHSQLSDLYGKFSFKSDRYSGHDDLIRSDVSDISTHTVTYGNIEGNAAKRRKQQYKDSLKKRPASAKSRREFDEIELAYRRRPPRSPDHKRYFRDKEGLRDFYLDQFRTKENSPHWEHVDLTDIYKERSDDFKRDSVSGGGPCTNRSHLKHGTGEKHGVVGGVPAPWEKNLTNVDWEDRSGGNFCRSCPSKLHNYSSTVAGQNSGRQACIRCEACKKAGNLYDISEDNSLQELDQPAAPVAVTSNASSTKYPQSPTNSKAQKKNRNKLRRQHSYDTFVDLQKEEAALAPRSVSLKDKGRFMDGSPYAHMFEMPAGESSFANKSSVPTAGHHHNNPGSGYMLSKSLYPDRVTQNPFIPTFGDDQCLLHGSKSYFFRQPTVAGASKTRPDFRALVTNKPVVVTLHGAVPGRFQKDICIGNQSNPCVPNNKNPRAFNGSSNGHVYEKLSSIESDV
Experiment: Negative allosteric modulation of recombinant rat GluN2B receptor expressed in Xenopus laevis oocytes by two-electrode voltage clamp method
measured property: IC50 (µM)

compound | measured property | val
O=C(O)CCC(=O)N1N=C(c2c(-c3ccc(Br)cc3)c3ccccc3[nH]c2=O)CC1c1ccc(Br)cc1 (stereo unspecified) | IC50 | 23

[a] O=C(O)CCC(=O)N1N=C(c2c(-c3ccc(Br)cc3)c3ccccc3[nH]c2=O)CC1c1ccc(F)cc1 (stereo unspecified)
[b] O=C(O)CCC(=O)N1N=C(c2c(-c3ccc(Br)cc3)c3ccccc3[nH]c2=O)CC1c1ccccc1 (stereo unspecified)
[c] O=C(O)CCC(=O)N1N=C(c2c(-c3ccccc3)c3cc(Cl)ccc3[nH]c2=O)CC1c1ccc([N+](=O)[O-])cc1 (stereo unspecified)
### Prompt Please list these compounds in decreasing order of IC50. # format: label list in the order the request specifies
### Response b, a, c

[A] O=C(O)CCCC(=O)N1N=C(c2c(-c3ccccc3)c3cc(Cl)ccc3[nH]c2=O)CC1c1ccc(Br)cc1 (stereo unspecified)
[B] O=C(O)CCC(=O)N1N=C(c2c(-c3ccc(F)c(Cl)c3)c3ccccc3[nH]c2=O)CC1c1ccc(Cl)cc1 (stereo unspecified)
[C] O=C(O)CCCN1N=C(c2c(-c3ccc(Cl)cc3)c3ccccc3[nH]c2=O)CC1c1ccc(Cl)cc1 (stereo unspecified)
[D] COc1cccc(-c2c(C3=NN(C(=O)CCC(=O)O)C(c4ccc(Cl)cc4)C3)c(=O)[nH]c3ccccc23)c1 (stereo unspecified)
### Prompt Sort low-to-high on IC50, please. # format: label list in the order the request specifies
### Response B, C, A, D

====

Biological target: Glutamate receptor ionotropic, NMDA 2D (Rattus norvegicus, UniProt P35439+Q62645)
Sequence (Q62645 whole entry, one chain of several): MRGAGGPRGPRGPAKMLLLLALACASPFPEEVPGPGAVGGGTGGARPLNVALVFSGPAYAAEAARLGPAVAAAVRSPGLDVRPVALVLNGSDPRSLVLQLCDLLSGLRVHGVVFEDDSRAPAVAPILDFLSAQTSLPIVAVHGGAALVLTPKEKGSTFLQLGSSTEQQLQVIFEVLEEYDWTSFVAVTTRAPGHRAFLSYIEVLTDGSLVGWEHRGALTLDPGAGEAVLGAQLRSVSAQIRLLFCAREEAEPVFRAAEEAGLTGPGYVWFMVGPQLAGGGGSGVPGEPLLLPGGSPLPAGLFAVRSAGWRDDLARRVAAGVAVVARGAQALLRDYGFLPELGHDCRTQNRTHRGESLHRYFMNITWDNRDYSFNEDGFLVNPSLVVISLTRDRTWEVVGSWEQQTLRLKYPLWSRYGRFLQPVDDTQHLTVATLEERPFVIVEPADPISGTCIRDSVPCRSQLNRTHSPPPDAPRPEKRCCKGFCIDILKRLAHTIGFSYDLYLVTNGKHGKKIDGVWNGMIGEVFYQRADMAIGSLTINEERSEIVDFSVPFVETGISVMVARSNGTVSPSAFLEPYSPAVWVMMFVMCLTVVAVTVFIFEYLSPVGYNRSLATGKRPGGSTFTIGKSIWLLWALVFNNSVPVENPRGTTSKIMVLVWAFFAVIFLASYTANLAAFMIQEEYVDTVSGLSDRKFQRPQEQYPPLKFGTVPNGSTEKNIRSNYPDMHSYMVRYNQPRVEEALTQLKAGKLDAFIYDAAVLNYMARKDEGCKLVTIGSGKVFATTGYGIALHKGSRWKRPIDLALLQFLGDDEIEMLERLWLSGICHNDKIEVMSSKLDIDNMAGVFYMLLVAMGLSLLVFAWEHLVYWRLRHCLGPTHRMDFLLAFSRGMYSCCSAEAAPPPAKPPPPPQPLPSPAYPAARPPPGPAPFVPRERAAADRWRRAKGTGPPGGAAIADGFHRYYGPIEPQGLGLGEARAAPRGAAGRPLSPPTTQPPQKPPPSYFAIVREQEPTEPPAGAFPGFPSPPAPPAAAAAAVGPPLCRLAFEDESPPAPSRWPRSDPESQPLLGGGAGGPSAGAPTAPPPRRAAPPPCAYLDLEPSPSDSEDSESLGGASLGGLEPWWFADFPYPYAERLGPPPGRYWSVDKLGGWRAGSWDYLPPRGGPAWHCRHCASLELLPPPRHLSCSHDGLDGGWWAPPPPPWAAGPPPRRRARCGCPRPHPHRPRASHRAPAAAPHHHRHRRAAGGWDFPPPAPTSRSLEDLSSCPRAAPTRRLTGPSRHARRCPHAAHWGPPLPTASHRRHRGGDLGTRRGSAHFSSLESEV
Test: Negative allosteric modulation of recombinant rat GluN2D receptor expressed in Xenopus laevis oocytes by two-electrode voltage clamp method
pIC50: −log10 of the molar value.
measured property: pIC50

Known results for compounds:
compound | target or test system | pIC50
COc1ccc(-c2c(C3=NN(C(=O)CCC(=O)O)C(c4ccc(Cl)cc4)C3)c(=O)[nH]c3ccccc23)cc1 (stereo not given) | Glutamate receptor ionotropic, NMDA 2D (Rattus norvegicus, UniProt P35439+Q62645) | 5.64
O=C(O)CCC(=O)N1N=C(c2c(-c3ccccc3)c3cc(Cl)ccc3[nH]c2=O)CC1c1ccc(Cl)cc1 (stereo not given) | Glutamate receptor ionotropic, NMDA 2D (Rattus norvegicus, UniProt P35439+Q62645) | 5.35
O=C(O)CCC(=O)N1N=C(c2c(-c3ccc(Cl)cc3)c3ccccc3[nH]c2=O)CC1c1ccc(Br)cc1 (stereo not given) | Glutamate receptor ionotropic, NMDA 2D (Rattus norvegicus, UniProt P35439+Q62645) | 6.29

[a] O=C(O)CCC(=O)N1N=C(c2c(-c3ccc(Cl)c(Cl)c3)c3ccccc3[nH]c2=O)CC1c1ccc(Cl)cc1 (stereo not given)
[b] O=C(O)CCC(=O)N1N=C(c2c(-c3ccc(Cl)cc3)c3ccccc3[nH]c2=O)CC1c1ccccc1 (stereo not given)
### Prompt # argmax over pIC50 for candidates a and b Identify your selection by its label.
### Response a
(a: 6.04, b: 4.96)

[a] O=C(O)CCC(=O)N1N=C(c2c(-c3cccc(Cl)c3)c3ccccc3[nH]c2=O)CC1c1ccc(Cl)cc1 (stereo not given)
[b] O=C(O)CCC(=O)N1N=C(c2c(-c3ccc(Cl)cc3)c3ccccc3[nH]c2=O)CC1c1ccc(F)cc1 (stereo not given)
### Prompt Between the entries labeled a and b , whose measured pIC50 is lower? Identify your selection by its label.
### Response b

[A] NC(=O)CCC(=O)N1N=C(c2c(-c3ccc(Cl)cc3)c3ccccc3[nH]c2=O)CC1c1ccc(Cl)cc1 (stereo not given)
[B] O=C(O)CCC(=O)N1N=C(c2c(-c3ccc(Br)cc3)c3ccccc3[nH]c2=O)CC1c1ccccc1 (stereo not given)
### Prompt # argmax over pIC50 for candidates A and B Identify your selection by its label.
### Response A
(A: 5.96, B: 5.04)

====

Target: Glutamate receptor ionotropic, NMDA 2A (Rattus norvegicus, UniProt P35439+Q00959)
Assay: Negative allosteric modulation of recombinant rat GluN2A receptor expressed in Xenopus laevis oocytes by two-electrode voltage clamp method
measured property: IC50 (µM)

Known results for molecules:
molecule | val
O=C(O)CCC(=O)N1N=C(c2c(-c3cc(Cl)cc(Cl)c3)c3ccccc3[nH]c2=O)CC1c1ccc(Cl)cc1 (stereo not given) | 5.5
Cc1ccc(-c2c(C3=NN(C(=O)CCC(=O)O)C(c4ccc(Cl)cc4)C3)c(=O)[nH]c3ccccc23)cc1 (stereo not given) | 33
O=C(O)CCC(=O)N1N=C(c2c(-c3ccccc3)c3cc(Cl)ccc3[nH]c2=O)CC1c1ccc(F)cc1 (stereo not given) | 128
COc1ccc(-c2c(C3=NN(C(=O)CCC(=O)O)C(c4ccc(Cl)cc4)C3)c(=O)[nH]c3ccccc23)cc1 (stereo not given) | 62
N#Cc1ccc(-c2c(C3=NN(C(=O)CCC(=O)O)C(c4ccc(Cl)cc4)C3)c(=O)[nH]c3ccccc23)cc1 (stereo not given) | 156

[P] O=C(O)CCC(=O)N1N=C(c2c(-c3ccc(Cl)cc3)c3ccccc3[nH]c2=O)CC1c1ccc(Br)cc1 (stereo not given)
[Q] O=C(O)CCC(=O)N1N=C(c2c(-c3ccc(Cl)cc3)c3ccccc3[nH]c2=O)C[C@H]1c1ccc(Cl)cc1
### Prompt Between the entries labeled P and Q , whose measured IC50 is lower? Identify your selection by its label.
### Response Q

[A] O=C(O)CCC(=O)N1N=C(c2c(-c3ccc(Cl)cc3)c3ccccc3[nH]c2=O)C[C@@H]1c1ccc(Cl)cc1
[B] O=C(O)CCCC(=O)N1N=C(c2c(-c3ccccc3)c3cc(Cl)ccc3[nH]c2=O)CC1c1ccc(Br)cc1 (stereo not given)
[C] O=C(O)/C=C\C(=O)N1N=C(c2c(-c3ccc(Br)cc3)c3ccccc3[nH]c2=O)CC1c1ccc(Cl)cc1 (stereo not given)
### Prompt Sort low-to-high on IC50, please. # format: label list in the order the request specifies
### Response C, A, B
